assay.method.text: qHTS of pediatric cancer cell lines to identify multiple opportunities for drug repurposing: Orthogonal 3D caspase screen for TC32 cells
condition.description: TC32 3D spheroids, caspase-3/7 fluorescence imaging, 24 h; series mostly up to 30.7 µM
This is one part of the list. Records with an inconclusive call do not appear. Activity calls are given as the source filed them. Calls come from the whole dose curve; as a rule, active = well fitted inhibition curve with a large enough effect; inconclusive = small, poorly fitted or top-dose-only effect; inactive = no such curve, though single readings can be large or run the other way.
measurement.name: Potency

Some compounds with known Potency results, for comparison:
CC(NCc1ccc2c(c1)nc(NC(=O)c1ccc(-c3cn[nH]c3)s1)n2CC(C)(C)O)C(C)(C)C (stereo not given) ... 1.44 µM (active)
COc1c(C)c2c(c(O)c1C/C=C(\C)CCC(=O)O)C(=O)OC2 ... inactive
CC1(C)O[C@@H]2C[C@@H]3[C@H]4C[C@@H](F)C5=CC(=O)C=C[C@]5(C)[C@@]4(F)[C@@H](O)C[C@]3(C)[C@]2(C(=O)CO)O1 ... inactive
C=C1C(=CC=C2CCC[C@]3(C)[C@@H]([C@H](C)C=C[C@H](C)C(C)C)CC[C@@H]23)C[C@@H](O)C[C@@H]1O ... inactive

Query string: Reported Potency, compound CC[C@]1(O)C[C@@H]2CN(CCc3c([nH]c4ccccc34)[C@@](C(=O)OC)(c3cc4c(cc3OC)N(C)[C@H]3[C@@](O)(C(=O)OC)[C@H](OC(C)=O)[C@]5(CC)C=CCN6CC[C@]43[C@@H]65)C2)C1 : ____
Result string: 0.0722 µM (active)
